Taken from paper PMC7339578.

Assay: Stability tests of analytes in rat plasma QC samples
Type: in vitro ADME
Conditions: rat plasma, nominal conc. 400 nM
Description: […] The dilution integrity was investigated by analyzing six replicate samples with each analyte, and each analyte were diluted 10-fold with blank rat matrix. Furthermore, the diluted samples were analyzed using freshly prepared calibration curve to calculate RE and RSD, which should be no more than ± 15% as criterion.
readoutKind: At -80 °C for 48 h, RE (%)

compound | observedMeasurement
O=C1CCC[C@@H]2[C@H]3CCCN4CCC[C@@H](CN12)[C@@H]34 [Compound A1, Matrine] | -6.06
CC(C)=CCC[C@](C)(O[C@@H]1O[C@H](CO[C@@H]2O[C@H](CO)[C@@H](O)[C@H](O)[C@H]2O)[C@@H](O)[C@H](O)[C@H]1O)[C@H]1CC[C@]2(C)[C@@H]1[C@H](O)C[C@@H]1[C@@]3(C)CC[C@H](O[C@@H]4O[C@H](CO)[C@@H](O)[C@H](O)[C@H]4O[C@@H]4O[C@H](CO)[C@@H](O)[C@H](O)[C@H]4O)C(C)(C)[C@@H]3CC[C@]12C [Compound D5, Ginsenoside Rb1] | 12.25

* * *

assay: Biliary (hepatobiliary) excretion in rats after a 30-min infusion of Kang-Ai injection; assay type: in vivo, Sprague–Dawley rats; settings: rat, in vivo, iv
readoutKind: fe-B,0–12h (fraction of dose excreted into bile) (%)

compound | unitOfMeasure | observedMeasurement
C=C(CCC=C(C)C)[C@H]1CC[C@]2(C)[C@@H]1[C@H](O)C[C@@H]1[C@@]3(C)CC[C@H](O)C(C)(C)[C@@H]3[C@@H](O[C@@H]3O[C@H](CO)[C@@H](O)[C@H](O)[C@H]3O)C[C@]12C [Compound E1, Ginsenoside Rk3] | % | 27.80
C=C(CCC=C(C)C)[C@H]1CC[C@]2(C)[C@@H]1[C@H](O)C[C@@H]1[C@@]3(C)CC[C@H](O)C(C)(C)[C@@H]3[C@@H](O[C@@H]3O[C@H](CO)[C@@H](O)[C@H](O)[C@H]3O[C@@H]3O[C@@H](C)[C@H](O)[C@@H](O)[C@H]3O)C[C@]12C [Compound E3, Ginsenoside Rg6] | % | 31.31
O=C1CCCC2=C3CCC[N+]4([O-])CCC[C@@H](CN12)[C@@H]34 (stereo partly drawn) [Compound A7, Leontalbinine N-oxide] | % | 7.30
CC(C)=CC/C=C(/C)[C@H]1CC[C@]2(C)[C@@H]1[C@H](O)C[C@@H]1[C@@]3(C)CC[C@H](O)C(C)(C)[C@@H]3[C@@H](O[C@@H]3O[C@H](CO)[C@@H](O)[C@H](O)[C@H]3O[C@@H]3O[C@@H](C)[C@H](O)[C@@H](O)[C@H]3O)C[C@]12C [Compound E4, Ginsenoside F4] | % | 29.36
O=C1CCC[C@@H]2[C@H]3CCCN4CCC[C@@](O)(CN12)[C@@H]34 | % | 1.27
CC(C)=CCC[C@](C)(O)[C@H]1CC[C@]2(C)[C@@H]1[C@H](O)C[C@@H]1[C@@]3(C)CC[C@H](O)C(C)(C)[C@@H]3[C@@H](O[C@@H]3O[C@H](CO)[C@@H](O)[C@H](O)[C@H]3O[C@@H]3OC[C@@H](O)[C@H](O)[C@H]3O)C[C@]12C [Compound C3, Notoginsenoside R2] | % | 23.55
O=c1cccc([C@@H]2C[C@H](CO)[C@H]3CCCCN3C2)[nH]1 | % | 34.12
O=C1C=CC[C@@H]2[C@H]3C[C@H](O)CN4CCC[C@@H](CN12)[C@@H]34 [Compound A6, 9α-hydroxysophocarpine] | % | 12.50
CC(C)(O[C@@H]1O[C@H](CO)[C@@H](O)[C@H](O)[C@H]1O)[C@@H]1CC[C@](C)([C@H]2[C@@H](O)C[C@@]3(C)[C@@H]4C[C@H](O)[C@H]5C(C)(C)[C@@H](O[C@@H]6OC[C@@H](O)[C@H](O)[C@H]6O)CC[C@@]56C[C@@]46CC[C@]23C)O1 [Compound B1, Isoastragaloside IV] | % | 30.40

* * *

assay: Plasma pharmacokinetics in rats after a 30-min intravenous infusion of Kang-Ai injection; assay type: in vivo, Sprague–Dawley rats; conditions: male, Sprague-Dawley, in vivo; rat plasma; 30-min iv infusion of Kang-Ai injection 6 mL/kg; read-out: Cmax
Each item that follows carries a reported Cmax.

compound | unitOfMeasure | Cmax
O=C1C=CC[C@@H]2[C@H]3CCC[N+]4([O-])CCC[C@@H](CN12)[C@@H]34 (some centres unmarked) | nM | 170
CC(C)=CCC[C@](C)(O)[C@H]1CC[C@]2(C)[C@@H]1[C@H](O)C[C@@H]1[C@@]3(C)CC[C@H](O)C(C)(C)[C@@H]3[C@@H](O[C@@H]3O[C@H](CO)[C@@H](O)[C@H](O)[C@H]3O)C[C@]12C [Compound C1, Ginsenoside Rh1] | nM | 140

* * *

molecular target: CYP3A4 (Homo sapiens, UniProt P08684); experiment: Inhibition of recombinant CYP3A4 (probe nifedipine); assay type: in vitro ADME; details: IC50 towards CYP3A4, recombinant isozyme; mean ± SD of triplicate; unit not given (IC50 classes in μM)
Sequence (P08684 whole entry): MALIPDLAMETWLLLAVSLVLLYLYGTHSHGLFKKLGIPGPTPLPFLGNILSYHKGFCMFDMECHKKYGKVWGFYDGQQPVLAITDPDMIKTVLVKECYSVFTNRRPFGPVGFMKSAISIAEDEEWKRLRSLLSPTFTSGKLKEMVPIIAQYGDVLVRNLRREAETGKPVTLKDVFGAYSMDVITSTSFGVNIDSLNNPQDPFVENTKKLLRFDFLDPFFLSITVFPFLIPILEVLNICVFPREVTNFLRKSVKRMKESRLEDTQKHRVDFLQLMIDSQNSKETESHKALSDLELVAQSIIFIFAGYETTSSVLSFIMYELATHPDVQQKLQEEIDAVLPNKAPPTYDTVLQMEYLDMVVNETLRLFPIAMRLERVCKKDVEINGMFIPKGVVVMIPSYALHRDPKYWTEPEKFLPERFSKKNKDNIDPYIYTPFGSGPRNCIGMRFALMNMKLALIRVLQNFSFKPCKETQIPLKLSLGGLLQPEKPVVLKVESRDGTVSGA

molecule | IC50
O=C1CCC[C@@H]2[C@H]3CCC[N+]4([O-])CCC[C@@H](CN12)[C@@H]34 (stereo partly shown) | > 100 µM

* * *

experiment: Stability tests of analytes in rat plasma QC samples; format: in vitro ADME; conditions: rat plasma, nominal conc. 400 nM
Threshold check on At -80 °C for 48 h, RE: at or above 10% gives 1, strictly below gives 0.

molecule | assignedClass
CC(C)=CCC[C@](C)(O[C@@H]1O[C@H](CO)[C@@H](O)[C@H](O)[C@H]1O)[C@H]1CC[C@]2(C)[C@@H]1[C@H](O)C[C@@H]1[C@@]3(C)CC[C@H](O)C(C)(C)[C@@H]3[C@@H](O[C@@H]3O[C@H](CO)[C@@H](O)[C@H](O)[C@H]3O[C@@H]3OC[C@@H](O)[C@H](O)[C@H]3O)C[C@]12C [Compound C8, Notoginsenoside R1] | 1
O=C1C=CC[C@@H]2[C@H]3CCC[N+]4([O-])CCC[C@@H](CN12)[C@@H]34 (stereo partly shown) | 1
CC(C)=CCC[C@](C)(O)[C@H]1CC[C@]2(C)[C@@H]1[C@H](O)C[C@@H]1[C@@]3(C)CC[C@H](O)C(C)(C)[C@@H]3[C@@H](O[C@@H]3O[C@H](CO)[C@@H](O)[C@H](O)[C@H]3O[C@@H]3O[C@@H](C)[C@H](O)[C@@H](O)[C@H]3O)C[C@]12C [Compound C5, Ginsenoside Rg2] | 0
CC(C)(O)[C@@H]1CC[C@](C)([C@H]2[C@@H](O)C[C@@]3(C)[C@@H]4C[C@H](O)[C@H]5C(C)(C)[C@@H](O[C@@H]6OC[C@@H](O)[C@H](O)[C@H]6O[C@@H]6O[C@H](CO)[C@@H](O)[C@H](O)[C@H]6O)CC[C@@]56C[C@@]46CC[C@]23C)O1 [Compound B3, Astragaloside III] | 1
CC(C)=CCC[C@](C)(O)[C@H]1CC[C@]2(C)[C@@H]1[C@H](O)C[C@@H]1[C@@]3(C)CC[C@H](O)C(C)(C)[C@@H]3[C@@H](O[C@@H]3O[C@H](CO)[C@@H](O)[C@H](O)[C@H]3O[C@@H]3O[C@H](CO)[C@@H](O)[C@H](O)[C@H]3O)C[C@]12C [Compound C7, Ginsenoside Rf] | 1
CC(C)=CCC[C@](C)(O[C@@H]1O[C@H](CO[C@@H]2OC[C@H](O)[C@H](O)[C@H]2O)[C@@H](O)[C@H](O)[C@H]1O)[C@H]1CC[C@]2(C)[C@@H]1[C@H](O)C[C@@H]1[C@@]3(C)CC[C@H](O[C@@H]4O[C@H](CO)[C@@H](O)[C@H](O)[C@H]4O[C@@H]4O[C@H](CO)[C@@H](O)[C@H](O)[C@H]4O)C(C)(C)[C@@H]3CC[C@]12C [Compound D4, Ginsenoside Rb2] | 1
CC(C)=CCC[C@](C)(O[C@@H]1O[C@H](CO[C@@H]2O[C@@H](CO)[C@H](O)[C@H]2O)[C@@H](O)[C@H](O)[C@H]1O)[C@H]1CC[C@]2(C)[C@@H]1[C@H](O)C[C@@H]1[C@@]3(C)CC[C@H](O[C@@H]4O[C@H](CO)[C@@H](O)[C@H](O)[C@H]4O[C@@H]4O[C@H](CO)[C@@H](O)[C@H](O)[C@H]4O)C(C)(C)[C@@H]3CC[C@]12C [Compound D3, Ginsenoside Rc] | 0

* * *

experiment: Stability tests of analytes in rat plasma QC samples; assay type: in vitro ADME; conditions: rat plasma, nominal conc. 100 nM
A collection of compounds and their measured Three freeze-thaw cycles (-80 °C ↔ 23 °C), Mean±SD
readoutKind: Three freeze-thaw cycles (-80 °C ↔ 23 °C), Mean±SD (nM)

compound | observedMeasurement
CC(C)=CCC[C@](C)(O[C@@H]1O[C@H](CO)[C@@H](O)[C@H](O)[C@H]1O)[C@H]1CC[C@]2(C)[C@@H]1[C@H](O)C[C@@H]1[C@@]3(C)CC[C@H](O[C@@H]4O[C@H](CO)[C@@H](O)[C@H](O)[C@H]4O[C@@H]4O[C@H](CO)[C@@H](O)[C@H](O)[C@H]4O)C(C)(C)[C@@H]3CC[C@]12C [Compound D2, Ginsenoside Rd] | 101.66
CC(C)(O)[C@@H]1CC[C@](C)([C@H]2[C@@H](O)C[C@@]3(C)[C@@H]4C[C@H](O)[C@H]5C(C)(C)[C@@H](O[C@@H]6OC[C@@H](O)[C@H](O)[C@H]6O[C@@H]6O[C@H](CO)[C@@H](O)[C@H](O)[C@H]6O)CC[C@@]56C[C@@]46CC[C@]23C)O1 [Compound B3, Astragaloside III] | 103.49
CC(C)=CCC[C@](C)(O)[C@H]1CC[C@]2(C)[C@@H]1[C@H](O)C[C@@H]1[C@@]3(C)CC[C@H](O)C(C)(C)[C@@H]3[C@@H](O[C@@H]3O[C@H](CO)[C@@H](O)[C@H](O)[C@H]3O)C[C@]12C [Compound C1, Ginsenoside Rh1] | 99.91
CC(C)=CCC[C@](C)(O[C@@H]1O[C@H](CO[C@@H]2O[C@@H](CO)[C@H](O)[C@H]2O)[C@@H](O)[C@H](O)[C@H]1O)[C@H]1CC[C@]2(C)[C@@H]1[C@H](O)C[C@@H]1[C@@]3(C)CC[C@H](O[C@@H]4O[C@H](CO)[C@@H](O)[C@H](O)[C@H]4O[C@@H]4O[C@H](CO)[C@@H](O)[C@H](O)[C@H]4O)C(C)(C)[C@@H]3CC[C@]12C [Compound D3, Ginsenoside Rc] | 107.11
CC(C)=CCC[C@](C)(O[C@@H]1O[C@H](CO[C@@H]2O[C@H](CO)[C@@H](O)[C@H](O)[C@H]2O)[C@@H](O)[C@H](O)[C@H]1O)[C@H]1CC[C@]2(C)[C@@H]1[C@H](O)C[C@@H]1[C@@]3(C)CC[C@H](O[C@@H]4O[C@H](CO)[C@@H](O)[C@H](O)[C@H]4O[C@@H]4O[C@H](CO)[C@@H](O)[C@H](O)[C@H]4O)C(C)(C)[C@@H]3CC[C@]12C [Compound D5, Ginsenoside Rb1] | 108.29
CC(C)=CCC[C@](C)(O)[C@H]1CC[C@]2(C)[C@@H]1[C@H](O)C[C@@H]1[C@@]3(C)CC[C@H](O)C(C)(C)[C@@H]3[C@@H](O[C@@H]3O[C@H](CO)[C@@H](O)[C@H](O)[C@H]3O[C@@H]3O[C@@H](C)[C@H](O)[C@@H](O)[C@H]3O)C[C@]12C [Compound C5, Ginsenoside Rg2] | 104.41
